Hey, just so you know, these numbers are from the supplement of paper PMC10646978.

Tested on: RAW-Dual (murine macrophage reporter line)
Assay: NF-kB reporter (SEAP) activity fold change vs agonist alone; higher = enhanced NF-kB activity
Conditions: modulator concentration 10 µM; agonist: LPS 0.1 ug/mL
# NF-kB reporter per entry

{"Molecule": "O=c1[nH]c(=O)n([C@H]2C[C@H](O)[C@@H](CO)O2)cc1I", "NF-kB reporter": 0.928}
{"Molecule": "N#Cc1ccc(C(=O)Nc2nc(-c3cccs3)c(C(=O)C(F)(F)F)s2)cc1", "NF-kB reporter": 1.06}
{"Molecule": "O=C(C=Cc1ccc(O)cc1)c1ccc(O)cc1O", "NF-kB reporter": 1.09}
{"Molecule": "C1=C(c2ccccc2)Nc2nnnn2C1c1ccccc1 (stereo not drawn)", "NF-kB reporter": 0.945}

Incoming: Recorded NF-kB reporter of COc1cc(O)c2c(=O)cc(-c3ccc(O)cc3)oc2c1 , please.
Outgoing: 1.04

Incoming: Now try O=C(NCc1nc(C2CCCCC2)cs1)c1ccc(F)cc1 .
Outgoing: 1.16

Incoming: Now try CC12CCC3c4ccc(O)cc4CCC3C1CC(O)C2O (stereo not drawn) .
Outgoing: 1.28

Incoming: Now try O=C(Nc1ccc([N+](=O)[O-])cc1Cl)c1cccnc1 .
Outgoing: 0.96

Incoming: Now try CCOC(=O)c1ccccc1NC(=O)CN(c1cc(Cl)ccc1OC)S(C)(=O)=O .
Outgoing: 1.09

Incoming: Now try Cc1cc2c(cc1S(N)(=O)=O)S(=O)(=O)CCC2 .
Outgoing: 1.03

Incoming: Now try CC(C)(C)C(=O)C(Oc1ccc(Cl)cc1)n1ccnc1 (stereo not drawn) .
Outgoing: 0.983

Incoming: Now try CN(C)CCCN1c2ccccc2CCc2ccc(Cl)cc21.Cl .
Outgoing: 1.15
